So I've got MIC readings for Candida albicans, take a look.

> print(dat)
                                   compound  quantity.name  endpoint.value
1  CCSCC(O)(Cn1cncn1)C(C)(C)COc1ccc(Cl)cc1 (stereo not shown)            MIC       < 1 µg/mL

Measured MIC of CC(C)SCC(O)(Cn1cncn1)C(C)(C)Cc1ccc(SC(F)(F)F)cc1 (stereo not shown) : < 1 µg/mL

Measured MIC of CCSCC(O)(Cn1cncn1)C(C)(C)Cc1ccccc1C (stereo not shown) : < 1 µg/mL

Measured MIC of CCCSCC(O)(Cn1cncn1)C(C)(C)Cc1ccc(SC(F)(F)F)cc1 (stereo not shown) : 2 µg/mL

###

Recorded MIC by entry
test system: Candida albicans

Illustrative cases are given below, each with its answer.
> print(dat)
                                   compound  endpoint.value
1  CC(C)(Cc1ccc(SC(F)(F)F)cc1)C(O)(CS)Cn1cncn1 (stereo not shown)         2 µg/mL
2  CCCSCC(O)(Cn1cncn1)C(C)(C)Cc1ccc(C)cc1 (stereo not shown)       < 1 µg/mL
3  CCSCC(O)(Cn1cncn1)C(C)(C)COc1ccc(Cl)c(C)c1 (stereo not shown)       < 1 µg/mL
4  CC(C)SCC(O)(Cn1cncn1)C(C)(C)Cc1ccc(Br)cc1 (stereo not shown)       < 1 µg/mL

MIC for Candida albicans with input CCCCSCC(O)(Cn1cncn1)C(C)(C)Cc1ccc(SC(F)(F)F)cc1 (stereo not shown) equals 8 µg/mL

MIC for Candida albicans with input CC(C)CSCC(O)(Cn1cncn1)C(C)(C)Cc1ccc(Cl)cc1 (stereo not shown) equals < 1 µg/mL

MIC for Candida albicans with input CCSCC(O)(Cn1cncn1)C(C)(C)Cc1ccc(OC(F)(F)F)cc1 (stereo not shown) equals < 1 µg/mL

MIC for Candida albicans with input CC(C)SCC(O)(Cn1cncn1)C(C)(C)Cc1ccc(F)cc1 (stereo not shown) equals 2 µg/mL

MIC for Candida albicans with input CCCCSCC(O)(Cn1cncn1)C(C)(C)Cc1cccc(C)c1 (stereo not shown) equals < 1 µg/mL

MIC for Candida albicans with input CC(C)(Cc1ccc(F)cc1)C(O)(CSCc1ccc(Cl)cc1)Cn1cncn1 (stereo not shown) equals 2 µg/mL

###

Recorded MIC by entry
tested on: Candida albicans; experiment: Antimycotic in-vitro activity, serial dilution test (MIC); type: cell-based; conditions: Fleischextrakt-Traubenzucker-Bouillon, 28-37 °C, 24-96 h, inoculum 5 x 10^3 to 10^4 germs/ml, read-out: MHK-Werte in γ/ml Nährmedium, Candida albicans

Illustrative cases are given below, each with its answer.
> print(dat)
                                   molecule  quantity.name  endpoint.value
1  CCCSCC(O)(Cn1cncn1)C(C)(C)Cc1ccc(Cl)cc1 (stereo not shown)            MIC       < 1 µg/mL
2  CCSCC(O)(Cn1cncn1)C(C)(C)Cc1ccc(F)cc1 (stereo not shown)            MIC       < 1 µg/mL
3  CCCSCC(O)(Cn1cncn1)C(C)(C)Cc1ccc(OC(F)(F)F)cc1 (stereo not shown)            MIC       < 1 µg/mL

Measured MIC of CSCC(O)(Cn1cncn1)C(C)(C)Cc1ccc(Cl)cc1 (stereo not shown) : < 1 µg/mL

Measured MIC of CCCCSCC(O)(Cn1cncn1)C(C)(C)Cc1ccc(Cl)cc1 (stereo not shown) : 2 µg/mL

Measured MIC of CC(C)SCC(O)(Cn1cncn1)C(C)(C)Cc1ccc(Cl)cc1 (stereo not shown) : < 1 µg/mL

Measured MIC of C=CCSCC(O)(Cn1cncn1)C(C)(C)Cc1ccc(Cl)cc1 (stereo not shown) : < 1 µg/mL

Measured MIC of CCSCC(O)(Cn1cncn1)C(C)(C)Cc1ccc(Cl)cc1 (stereo not shown) : 2 µg/mL

Measured MIC of CCCSCC(O)(Cn1cncn1)C(C)(C)COc1ccc(Cl)c(C)c1 (stereo not shown) : < 1 µg/mL

Measured MIC of CCCSCC(O)(Cn1cncn1)C(C)(C)Cc1ccc(F)cc1 (stereo not shown) : < 1 µg/mL

###

test system: Candida albicans; assay: Antimycotic in-vitro activity, serial dilution test (MIC); format: cell-based; details: Fleischextrakt-Traubenzucker-Bouillon, 28-37 °C, 24-96 h, inoculum 5 x 10^3 to 10^4 germs/ml, read-out: MHK-Werte in γ/ml Nährmedium, Candida albicans
Quantity Name: MIC

Measured MIC of Cc1cccc(CC(C)(C)C(O)(CSC(C)C)Cn2cncn2)c1 (stereo not drawn) : 2 µg/mL

Measured MIC of CCSCC(O)(Cn1cncn1)C(C)(C)Cc1ccc(C)cc1 (stereo not drawn) : < 1 µg/mL

Measured MIC of CCSCC(O)(Cn1cncn1)C(C)(C)Cc1cccc(C)c1 (stereo not drawn) : < 1 µg/mL
